Biological target: human CD33 V37A (human, UniProt P20138 18-364)
Sequence (P20138 18-364 V37A limits assumed): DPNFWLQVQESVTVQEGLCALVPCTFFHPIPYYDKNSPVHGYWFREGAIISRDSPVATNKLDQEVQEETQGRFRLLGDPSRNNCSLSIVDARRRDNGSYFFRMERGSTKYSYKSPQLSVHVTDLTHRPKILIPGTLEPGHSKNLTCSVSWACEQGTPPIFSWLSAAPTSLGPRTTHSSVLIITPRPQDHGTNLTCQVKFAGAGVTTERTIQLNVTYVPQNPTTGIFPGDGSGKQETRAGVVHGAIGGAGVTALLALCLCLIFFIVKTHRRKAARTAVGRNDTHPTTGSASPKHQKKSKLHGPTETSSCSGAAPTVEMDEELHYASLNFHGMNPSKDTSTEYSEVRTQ
Assay: alanine scan, flow cytometry;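 further: HEK293-T cells transiently expressing single-residue alanine mutants of CD33 (alanine swapped to serine), antibody binding read by fluorescence in duplicate, background-subtracted, expressed relative to wild-type CD33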

binder	result_units	Mean % WT Binding
Refmab #2 (antibody, V domains shown, Full-length format is human IgG1 Fc silent (PG-LALA); The alanine scan used IgG or Fab) VH: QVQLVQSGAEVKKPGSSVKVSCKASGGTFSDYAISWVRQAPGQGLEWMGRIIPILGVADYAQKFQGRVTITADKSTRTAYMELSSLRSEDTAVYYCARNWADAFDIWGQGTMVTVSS VL: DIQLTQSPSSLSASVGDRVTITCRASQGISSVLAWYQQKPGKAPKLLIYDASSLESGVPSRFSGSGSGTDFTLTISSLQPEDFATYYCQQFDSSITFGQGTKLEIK	% WT	118
Refmab #3 (antibody, V domains shown, Full-length format is human IgG1 Fc silent (PG-LALA); The alanine scan used IgG or Fab) VH: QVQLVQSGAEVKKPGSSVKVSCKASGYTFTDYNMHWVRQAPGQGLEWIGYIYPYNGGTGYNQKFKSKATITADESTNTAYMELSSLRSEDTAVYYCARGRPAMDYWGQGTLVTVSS VL: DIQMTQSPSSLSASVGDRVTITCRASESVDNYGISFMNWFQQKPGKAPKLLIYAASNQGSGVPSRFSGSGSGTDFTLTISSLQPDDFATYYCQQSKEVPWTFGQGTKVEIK	% WT	150
Refmab #4 (antibody, V domains shown, Full-length format is human IgG1 Fc silent (PG-LALA); The alanine scan used IgG or Fab) VH: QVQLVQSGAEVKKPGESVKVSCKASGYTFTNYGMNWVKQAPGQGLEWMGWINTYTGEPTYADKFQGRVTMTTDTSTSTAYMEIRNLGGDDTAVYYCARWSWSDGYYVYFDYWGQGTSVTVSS VL: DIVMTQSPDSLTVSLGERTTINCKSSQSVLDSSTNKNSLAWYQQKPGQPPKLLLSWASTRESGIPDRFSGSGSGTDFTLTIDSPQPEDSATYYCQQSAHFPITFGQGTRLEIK	% WT	78.7
Refmab #1 (antibody, V domains shown, Full-length format is human IgG1 (Absolute Antibody Ab00283-10.0); The alanine scan used IgG or Fab; also called hP67.6) VH: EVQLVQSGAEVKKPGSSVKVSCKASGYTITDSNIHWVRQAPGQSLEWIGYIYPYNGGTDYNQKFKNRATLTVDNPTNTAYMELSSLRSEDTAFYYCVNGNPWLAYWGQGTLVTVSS VL: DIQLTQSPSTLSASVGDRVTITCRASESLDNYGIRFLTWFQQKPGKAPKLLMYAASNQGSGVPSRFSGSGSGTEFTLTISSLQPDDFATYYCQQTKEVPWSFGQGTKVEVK	% WT	78.7
